TARGET_OR_TEST_SYSTEM: T1, Human C3 (human, UniProt P01024 23-1663)
T1 construct: In SPR the bought human C3 was immobilised on CM5 chips by amine coupling; In the haemolysis assay the C3 is that of diluted human serum; also called complement C3
T1 sequence (P01024 23-1663 limits assumed): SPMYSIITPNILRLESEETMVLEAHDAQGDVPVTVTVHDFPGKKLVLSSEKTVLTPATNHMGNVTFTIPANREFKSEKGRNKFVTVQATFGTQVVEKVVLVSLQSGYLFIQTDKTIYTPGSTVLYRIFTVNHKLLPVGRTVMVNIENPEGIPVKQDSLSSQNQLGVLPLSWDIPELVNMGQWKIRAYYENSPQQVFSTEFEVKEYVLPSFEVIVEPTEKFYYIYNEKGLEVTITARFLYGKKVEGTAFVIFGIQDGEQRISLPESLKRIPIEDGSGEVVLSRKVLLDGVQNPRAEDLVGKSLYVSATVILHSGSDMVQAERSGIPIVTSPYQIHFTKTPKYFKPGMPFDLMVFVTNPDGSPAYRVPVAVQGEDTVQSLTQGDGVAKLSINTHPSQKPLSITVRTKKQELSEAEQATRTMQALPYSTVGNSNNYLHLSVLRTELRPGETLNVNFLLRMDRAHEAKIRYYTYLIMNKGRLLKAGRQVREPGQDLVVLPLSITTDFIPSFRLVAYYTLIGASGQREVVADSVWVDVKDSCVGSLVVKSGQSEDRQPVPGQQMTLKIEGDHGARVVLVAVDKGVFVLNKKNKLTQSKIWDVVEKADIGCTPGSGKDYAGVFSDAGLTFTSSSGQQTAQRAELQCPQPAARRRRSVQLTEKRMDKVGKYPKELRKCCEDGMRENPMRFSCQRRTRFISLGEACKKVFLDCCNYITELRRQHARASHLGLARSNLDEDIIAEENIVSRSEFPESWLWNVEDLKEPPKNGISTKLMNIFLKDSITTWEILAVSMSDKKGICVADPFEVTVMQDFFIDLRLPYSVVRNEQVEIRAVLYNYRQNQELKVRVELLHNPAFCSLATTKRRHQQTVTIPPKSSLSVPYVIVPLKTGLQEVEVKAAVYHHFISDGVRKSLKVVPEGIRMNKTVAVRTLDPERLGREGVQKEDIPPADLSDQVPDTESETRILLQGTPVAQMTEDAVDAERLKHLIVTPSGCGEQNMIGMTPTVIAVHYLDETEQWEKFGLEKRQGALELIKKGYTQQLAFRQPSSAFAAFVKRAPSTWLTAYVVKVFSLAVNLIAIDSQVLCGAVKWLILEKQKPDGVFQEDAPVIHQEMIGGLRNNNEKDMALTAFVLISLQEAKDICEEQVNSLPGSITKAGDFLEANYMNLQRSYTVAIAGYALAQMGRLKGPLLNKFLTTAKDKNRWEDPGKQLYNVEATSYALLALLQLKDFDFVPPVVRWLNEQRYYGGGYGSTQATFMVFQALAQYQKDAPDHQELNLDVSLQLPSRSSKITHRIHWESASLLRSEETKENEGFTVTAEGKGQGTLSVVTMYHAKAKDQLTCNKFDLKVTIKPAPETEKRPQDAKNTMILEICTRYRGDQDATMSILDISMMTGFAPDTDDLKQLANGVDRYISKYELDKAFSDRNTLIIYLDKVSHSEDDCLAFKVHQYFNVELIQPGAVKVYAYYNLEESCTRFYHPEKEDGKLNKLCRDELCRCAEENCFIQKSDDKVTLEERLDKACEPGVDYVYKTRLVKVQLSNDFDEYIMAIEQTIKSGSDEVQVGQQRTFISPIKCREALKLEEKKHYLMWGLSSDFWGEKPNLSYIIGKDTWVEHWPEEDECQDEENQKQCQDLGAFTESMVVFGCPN
ASSAY_PROTOCOL: SPR, C3 immobilised
Positions of bridges follow the written chain, without caps; N, C: chain ends. Non-standard residues stand in square brackets, D forms with d. Trp(1-Me) = Cn1cc(C[C@H](N)C(=O)O)c2ccccc21
Kindly supply the reported Kd values for the records listed here.

Known results for binders:
SEFAIWQDWGEHRCGEXXK (not fully specified; N-acetyl; C-terminal amide; delta-cystathionine (Ctt2) thioether bridge A4-hCys14 (hCys written C); W6 is 1-Me-Trp; G10 is Sar; G15 is Sar; X17 and X18 are Peg3; K19 side chain bears [17-carboxy-heptadecanoyl][γGlu]G[γGlu]) [Compound 147]	0.71 nM
Ac-EFCI[Trp(1-Me)]QDWGEHRCES-NH2 (disulfide 3-13; SMILES CC[C@H](C)[C@@H]1NC(=O)[C@@H](NC(=O)[C@H](Cc2ccccc2)NC(=O)[C@H](CCC(=O)O)NC(C)=O)CSSC[C@@H](C(=O)N[C@@H](CCC(=O)O)C(=O)N[C@@H](CO)C(N)=O)NC(=O)[C@H](CCCNC(=N)N)NC(=O)[C@H](Cc2c[nH]cn2)NC(=O)[C@H](CCC(=O)O)NC(=O)CNC(=O)[C@H](Cc2c[nH]c3ccccc23)NC(=O)[C@H](CC(=O)O)NC(=O)[C@H](CCC(N)=O)NC(=O)[C@H](Cc2cn(C)c3ccccc23)NC1=O) [Compound 85]	1.3 nM
SEFAIWQDWGEHRCGEGEXXK (not fully specified; N-acetyl; C-terminal amide; delta-cystathionine (Ctt2) thioether bridge A4-hCys14 (hCys written C); W6 is 1-Me-Trp; G15 is Sar; X19 and X20 are Peg3; K21 side chain bears [17-carboxy-heptadecanoyl][γGlu]G[γGlu]) [Compound 146]	0.43 nM

Please look at the following binder next.
Qu. # return recorded Kd for entry GEFAIWQDWGEHRCGEAEXXK (not fully specified; N-acetyl; C-terminal amide; delta-cystathionine (Ctt2) thioether bridge A4-hCys14 (hCys written C); W6 is 1-Me-Trp; G10 is Sar; G15 is Sar; X19 and X20 are Peg3; K21 side chain bears [17-carboxy-heptadecanoyl][γGlu]G[γGlu]) [Compound 149]
Ans. 0.5 nM
